test system: Nematospiroides dubius; test: Anthelmintic efficacy against N. dubius in mice, single oral dose; assay type: in vivo, Nematospiroides dubius (in albino female mice); conditions: Heligmosomoides polygyrus, po, as Base; single oral dose, mice; > indicates inactive at dose shown; read-out: Approx. ED50
Where a name gives a salt, the structure may show the parent alone.
Let's look at some compounds and their measured ED50.

{"columns": ["compound", "value_operator", "ED50 [mg/kg]"],
 "data": [
  ["O=[N+]([O-])c1cccc(C2CN3CCSC3=N2)c1 (racemic) [dl HCl NO2 meta, reference compound]", "=", 15],
  ["O=[N+]([O-])c1cccc(C2CN3C=CSC3=N2)c1 (racemic) [dl HClO4 NO2 * meta, reference compound]", "=", 25],
  ["CC(C)C(=O)Nc1cccc(C2CN3CCSC3=N2)c1 (stereo not shown) [m-NH--CO--CH(CH3)2 l]", "=", 1],
  ["Nc1ccc(C2CN3CCSC3=N2)cc1 (stereo not shown) [l 2HCl NH2 para, reference compound]", ">", 10]
]}

###

assay: in vivo; details: mouse, in vivo, po, LD50, mice; adjusted to molar equivalents of tetramisole free base
Structures can show the parent of a compound that is named as a salt.
metric_name: LD50

{"columns": ["compound", "recorded_value"],
 "data": [
  ["CCC(=O)Nc1cccc(C2CN3CCSC3=N2)c1 (racemic)", "30 to 40 mg/kg"],
  ["COC(=O)Nc1cccc(C2CN3CCSC3=N2)c1 (racemic) [m-NH-CO-OCH3 dl, hydrochloride]", "~125 mg/kg"],
  ["O=C(Nc1cccc(C2CN3CCSC3=N2)c1)c1ccc(Cl)cc1 (stereo not shown)", "~80 mg/kg"],
  ["Cl.Cl.Nc1cccc(C2CN3C=CSC3=N2)c1 (stereo not drawn) [5,6-dihydro m-NH2 dl]", "~80 mg/kg"],
  ["CC(C)Nc1cccc(C2CN3CCSC3=N2)c1 (stereo not shown)", "~50 mg/kg"],
  ["CCC(CC)C(=O)Nc1cccc(C2CN3CCSC3=N2)c1 (racemic)", "~160 mg/kg"],
  ["Cl.Cl.Nc1cccc(C2CN3CCSC3=N2)c1 (racemic)", "~20 mg/kg"]
]}

###

Assay: in vivo
Conditions: mouse, in vivo, po, LD50, mice; adjusted to molar equivalents of tetramisole free base
Description: Data on the acute oral toxicity to mice of various single oral doses of the above compounds and several analogs were obtained by conventional procedures, (Table IX hereinafter).
Counter-ions that a name gives are not always drawn.

{"columns": ["compound", "LD50"],
 "data": [
  ["O=C(Nc1cccc(C2CN3C=CSC3=N2)c1)c1ccccc1 (centres unmarked) [Table XIV b1987]", "~120 mg/kg"],
  ["O=C(Nc1cccc(C2CN3CCSC3=N2)c1)c1ccc([N+](=O)[O-])cc1 (centres unmarked) [Table XII b1857]", "60 to 90 mg/kg"],
  ["O=C(Nc1cccc(C2CN3CCSC3=N2)c1)c1ccccc1 (centres unmarked) [Table XII b1839]", "50 to 60 mg/kg"],
  ["O=CNc1cccc(C2CN3CCSC3=N2)c1 (stereo not drawn) [HNCHO l-]", "~30 mg/kg"],
  ["Nc1ccc(Br)c(C2CN3CCSC3=N2)c1 (racemic) [R1 =H R4 =Br, dihydrochloride]", "~50 mg/kg"],
  ["Nc1ccc([N+](=O)[O-])c(C2CN3CCSC3=N2)c1 (centres unmarked) [R1 =H R4 =NO2]", "120 to 140 mg/kg"],
  ["CC(C)(C)CC(=O)Nc1cccc(C2CN3CCSC3=N2)c1 (centres unmarked) [HNCOCH2 C(CH3)2]", "80 to 100 mg/kg"],
  ["CC(=O)Nc1cccc(C2CN3CCSC3=N2)c1 (centres unmarked) [HN--CO--CH3]", "40 to 60 mg/kg"]
]}

###

test: in vivo; conditions: single oral dose 40 Mg./Kg., mice

{"columns": ["compound", "Dead/Total"],
 "data": [
  ["O=C(Nc1cccc(C2CN3CCSC3=N2)c1)c1ccccc1 (racemic)", "0/6"],
  ["CC(C)Nc1cccc(C2CN3CCSC3=N2)c1 (stereo not shown)", "2/6"],
  ["CCCC(=O)Nc1cccc(C2CN3CCSC3=N2)c1 (racemic)", "3/5"],
  ["Cl.Cl.Nc1cccc(C2CN3CCSC3=N2)c1 (racemic)", "4/4"]
]}

###

test: in vivo; settings: mouse, in vivo, po, Approx. LD50, mouse oral, Table IX
Where a name gives a salt, the structure may show the parent alone.
metric_name: LD50

{"columns": ["compound", "recorded_value"],
 "data": [
  ["CC(C)C(=O)Nc1cccc(C2CN3CCSC3=N2)c1.Cl (stereo not drawn)", "~60 mg/kg"],
  ["CC(C)Nc1cccc(C2CN3CCSC3=N2)c1 (stereo not drawn)", "~40 mg/kg"],
  ["COC(=O)Nc1cccc(C2CN3CCSC3=N2)c1 (stereo not drawn) [m-NH-CO--OCH3 l, hydrochloride]", "~150 mg/kg"],
  ["CC(=O)Nc1cccc(C2CN3CCSC3=N2)c1 (stereo not drawn)", "> 10 mg/kg"],
  ["CCC(=O)Nc1cccc(C2CN3CCSC3=N2)c1 (racemic)", "< 40 mg/kg"],
  ["CC(=O)Nc1ccc(Br)c(C2CN3CCSC3=N2)c1 (racemic)", "> 100 mg/kg"]
]}
